The following are reported IC50 results, target or system Kallikrein-5 (Homo sapiens, UniProt Q9Y337).
readout.name: IC50

compound	readout.name	experimental.value
CC(=O)C1=C(C)N(c2cccc(C(F)(F)F)c2)C(=O)N[C@@H]1c1ccc(C#N)nc1 [BAY-678]	IC50	> 30 µM
CC1=C(C#N)[C@@H](c2ccc(C#N)cc2S(C)(=O)=O)N(C)C(=O)N1c1cccc(C(F)(F)F)c1	IC50	> 30 µM

###

Kallikrein-4 (Homo sapiens): reported IC50 for various molecules.
Sequence (Q9Y5K2 whole entry): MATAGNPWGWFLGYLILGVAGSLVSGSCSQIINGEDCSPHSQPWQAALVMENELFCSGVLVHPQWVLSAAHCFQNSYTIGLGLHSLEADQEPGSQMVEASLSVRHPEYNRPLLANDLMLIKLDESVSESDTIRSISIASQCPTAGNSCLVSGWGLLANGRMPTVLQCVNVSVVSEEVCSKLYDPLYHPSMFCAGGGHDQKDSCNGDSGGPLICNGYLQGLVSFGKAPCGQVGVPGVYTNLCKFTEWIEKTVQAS

molecule.smiles	IC50
CC1=C(C#N)[C@@H](c2ccc(C#N)cc2S(C)(=O)=O)N(C)C(=O)N1c1cccc(C(F)(F)F)c1	> 30 µM
CC(=O)C1=C(C)N(c2cccc(C(F)(F)F)c2)C(=O)N[C@@H]1c1ccc(C#N)nc1	> 30 µM

###

Reported Fh at […], 1 µM values follow for various molecules
Experiment: Metabolic stability in rat hepatocytes assessed as maximum bioavailability at <=[…] uM incubated for 90 mins by LC-MS/MS analysis
Type: ADME, organism-based, Hepatocyte
Details: read-out: Fmax
readout.name: Fh at […], 1 µM (%)

molecule	unit.spec	experimental.value
CCN(CC)CCN1C(=O)N(c2cccc(C(F)(F)F)c2)C(C)=C(C(C)=O)[C@H]1c1ccc(C#N)cc1	%	9
CCOC(=O)C1=C(N)N(c2cccc(C(F)(F)F)c2)C(C)=C(C(C)=O)C1c1ccc(Br)cc1 (configuration not stated)	%	31
CC(=O)C1=C(C)N(c2cccc(C(F)(F)F)c2)C(=O)N[C@@H]1c1ccc(C#N)cc1	%	31
CC1=C(C(=O)OCCO)[C@@H](c2ccc(C#N)cc2)NC(=O)N1c1cccc(C(F)(F)F)c1	%	57
CCOC(=O)C1=C(N)N(c2cccc(C(F)(F)F)c2)C(C)=C(C(C)=O)C1c1ccc(C#N)cc1 (configuration not stated)	%	57
CC(=O)C1=C(C)N(c2cccc(C(F)(F)F)c2)C(=O)N[C@@H]1c1ccc(C#N)nc1 [BAY-678]	%	57
CC(=O)C1=C(C)N(c2cccc(C(F)(F)F)c2)C(=O)N(CC(=O)O)[C@@H]1c1ccc(C#N)cc1	%	96
CC1=C(C#N)[C@@H](c2ccc(C#N)cc2)N(CC(N)=O)C(=O)N1c1cccc(C(F)(F)F)c1	%	77
CCOC(=O)C1=C(C)N(c2cccc(C(F)(F)F)c2)C(=O)N[C@@H]1c1ccc(C#N)cc1	%	5
CCOC(=O)C1=C(N)N(c2cccc([N+](=O)[O-])c2)C(C)=C(C(C)=O)C1c1ccc(Br)cc1 (configuration not stated)	%	15
CC1=C(C#N)[C@@H](c2ccc(C#N)cc2)NC(=O)N1c1cccc(C(F)(F)F)c1	%	35
CCOC(=O)C1=C(C)N(c2cccc(C(F)(F)F)c2)C(=O)N(CC(=O)O)[C@@H]1c1ccc(C#N)cc1	%	94

###

Each entry below carries its recorded IC50.
Target: UniProtKB P08311
Sequence (P08311 whole entry): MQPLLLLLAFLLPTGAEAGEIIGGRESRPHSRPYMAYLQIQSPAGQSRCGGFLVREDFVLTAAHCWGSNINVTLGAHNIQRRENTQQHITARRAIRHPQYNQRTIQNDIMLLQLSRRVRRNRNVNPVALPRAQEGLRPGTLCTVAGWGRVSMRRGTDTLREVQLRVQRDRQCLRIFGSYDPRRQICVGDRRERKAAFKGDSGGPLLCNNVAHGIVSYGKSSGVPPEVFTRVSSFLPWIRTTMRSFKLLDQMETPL

molecule	IC50
CC1=C(C#N)[C@@H](c2ccc(C#N)cc2S(C)(=O)=O)N(C)C(=O)N1c1cccc(C(F)(F)F)c1	> 30 µM
CC(=O)C1=C(C)N(c2cccc(C(F)(F)F)c2)C(=O)N[C@@H]1c1ccc(C#N)nc1 [BAY-678]	> 30 µM

###

Molecular target: Cytochrome P450 3A4 (Homo sapiens)
Sequence (P08684 whole entry): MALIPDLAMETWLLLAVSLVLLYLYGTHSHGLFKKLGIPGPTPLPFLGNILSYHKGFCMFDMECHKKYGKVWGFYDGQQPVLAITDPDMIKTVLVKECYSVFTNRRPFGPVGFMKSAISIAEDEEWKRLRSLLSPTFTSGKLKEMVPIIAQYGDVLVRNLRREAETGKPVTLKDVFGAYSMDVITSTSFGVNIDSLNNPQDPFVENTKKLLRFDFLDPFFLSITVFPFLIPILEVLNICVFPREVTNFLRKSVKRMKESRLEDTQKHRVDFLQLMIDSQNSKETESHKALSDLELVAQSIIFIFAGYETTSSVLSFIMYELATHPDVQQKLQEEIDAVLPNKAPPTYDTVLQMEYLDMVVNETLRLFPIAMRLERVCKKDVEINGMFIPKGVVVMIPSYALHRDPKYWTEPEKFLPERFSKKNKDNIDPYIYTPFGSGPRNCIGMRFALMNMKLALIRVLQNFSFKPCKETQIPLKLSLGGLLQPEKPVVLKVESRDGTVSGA

molecule	IC50
CCOC(=O)C1=C(N)N(c2cccc(C(F)(F)F)c2)C(C)=C(C(C)=O)C1c1ccc(Br)cc1 (stereo not drawn)	0.5 µM
CCN(CC)CCN1C(=O)N(c2cccc(C(F)(F)F)c2)C(C)=C(C(C)=O)[C@H]1c1ccc(C#N)cc1	> 50 µM
CCOC(=O)C1=C(C)N(c2cccc(C(F)(F)F)c2)C(=O)N[C@@H]1c1ccc(C#N)cc1	> 50 µM
CC(=O)C1=C(C)N(c2cccc(C(F)(F)F)c2)C(=O)N[C@@H]1c1ccc(C#N)nc1	> 50 µM
CC(=O)C1=C(C)N(c2cccc(C(F)(F)F)c2)C(=O)N(CC(=O)O)[C@@H]1c1ccc(C#N)cc1	> 100 µM
CC1=C(C#N)[C@@H](c2ccc(C#N)cc2)NC(=O)N1c1cccc(C(F)(F)F)c1	> 50 µM
CC1=C(C#N)C(c2ccc(C#N)cc2)CC(=O)N1c1cccc(C(F)(F)F)c1 (racemic)	15 µM
CC1=C(C#N)[C@@H](c2ccc(C#N)cc2[S@](C)(=N)=O)N(C)C(=O)N1c1cccc(C(F)(F)F)c1	> 50 µM

###

Target: Cytochrome P450 3A4 (Homo sapiens)

compound	comparison.symbol	IC50 / µM
CC1=C(C#N)[C@@H](c2ccc(C#N)cc2C(F)(F)F)NC(=O)N1c1cccc(C(F)(F)F)c1	>	50
CC(=O)C1=C(C)N(c2cccc(C(F)(F)F)c2)C(=O)N[C@@H]1c1ccc(C#N)cc1	>	50
CC1=C(C#N)[C@@H](c2ccc(C#N)cc2)N(C)C(=O)N1c1cccc(C(F)(F)F)c1	=	40
CCOC(=O)C1=C(N)N(c2cccc(C(F)(F)F)c2)C(C)=C(C(C)=O)C1c1ccc(C#N)cc1 (stereo unspecified)	=	25
CC1=C(C#N)[C@@H](c2ccc(C#N)cc2S(C)(=O)=O)N(C)C(=O)N1c1cccc(C(F)(F)F)c1	>	50
CC(=O)C1=C(C)N(c2cccc(C(F)(F)F)c2)C(=O)CC1c1ccc(C#N)cc1 (racemic)	=	9

###

Target: Coagulation factor VII (Homo sapiens, UniProt P08709)
Sequence (P08709 61-212 limits assumed): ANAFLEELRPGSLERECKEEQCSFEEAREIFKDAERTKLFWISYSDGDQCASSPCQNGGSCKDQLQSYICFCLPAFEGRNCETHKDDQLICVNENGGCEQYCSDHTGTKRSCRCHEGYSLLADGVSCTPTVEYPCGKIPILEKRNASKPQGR
Sequence (P08709 213-466 limits assumed): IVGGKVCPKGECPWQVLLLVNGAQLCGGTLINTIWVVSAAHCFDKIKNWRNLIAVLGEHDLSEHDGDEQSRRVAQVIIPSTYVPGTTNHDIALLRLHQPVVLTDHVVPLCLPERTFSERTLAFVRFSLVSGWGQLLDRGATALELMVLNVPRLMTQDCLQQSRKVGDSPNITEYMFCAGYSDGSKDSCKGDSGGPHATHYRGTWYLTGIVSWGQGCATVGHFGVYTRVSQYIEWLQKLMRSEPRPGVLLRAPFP
pIC50: −log10 of the molar value.

molecule.smiles	pIC50
CC1=C(C#N)[C@@H](c2ccc(C#N)cc2S(C)(=O)=O)N(C)C(=O)N1c1cccc(C(F)(F)F)c1	< 4.52
CC(=O)C1=C(C)N(c2cccc(C(F)(F)F)c2)C(=O)N[C@@H]1c1ccc(C#N)nc1	< 4.52

###

Molecular target: Cytochrome P450 2C9 (Homo sapiens)
Sequence (P11712 whole entry): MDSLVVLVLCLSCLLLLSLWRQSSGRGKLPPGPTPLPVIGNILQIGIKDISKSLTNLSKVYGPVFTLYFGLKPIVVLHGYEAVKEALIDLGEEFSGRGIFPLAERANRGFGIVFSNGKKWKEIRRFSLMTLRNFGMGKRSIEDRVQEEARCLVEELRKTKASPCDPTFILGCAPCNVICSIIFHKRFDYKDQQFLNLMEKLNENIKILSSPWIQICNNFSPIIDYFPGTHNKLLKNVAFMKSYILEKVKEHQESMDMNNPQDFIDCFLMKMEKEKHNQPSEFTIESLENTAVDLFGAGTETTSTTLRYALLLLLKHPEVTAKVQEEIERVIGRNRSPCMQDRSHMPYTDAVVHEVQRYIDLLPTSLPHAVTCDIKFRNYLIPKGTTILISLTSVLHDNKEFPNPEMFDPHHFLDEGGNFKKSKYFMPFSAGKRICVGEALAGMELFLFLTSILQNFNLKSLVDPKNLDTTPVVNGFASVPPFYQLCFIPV
Assay: Inhibition of CYP2C9 in human pooled liver microsomes using diclofenac as substrate measured after 10 to 20 mins by LC-MS/MS analysis
Assay type: ADME, Microsome

molecule.smiles	IC50
CC1=C(C#N)[C@@H](c2ccc(C#N)cc2[S@](C)(=N)=O)N(C)C(=O)N1c1cccc(C(F)(F)F)c1	> 50 µM
CC(=O)C1=C(C)N(c2cccc(C(F)(F)F)c2)C(=O)N[C@@H]1c1ccc(C#N)cc1	7 µM
CC1=C(C#N)[C@@H](c2ccc(C#N)cc2)NC(=O)N1c1cccc(C(F)(F)F)c1	18 µM
CC1=C(C#N)[C@@H](c2ccc(C#N)cc2S(C)(=O)=O)N(C)C(=O)N1c1cccc(C(F)(F)F)c1	> 50 µM
CC1=C(C#N)[C@@H](c2ccc(C#N)cc2S(C)(=O)=O)NC(=O)N1c1cccc(C(F)(F)F)c1	> 50 µM
CC1=C(C(=O)OCCO)[C@@H](c2ccc(C#N)cc2)NC(=O)N1c1cccc(C(F)(F)F)c1	2 µM
CC1=C(C#N)[C@@H](c2ccc(C#N)cc2C(F)(F)F)NC(=O)N1c1cccc(C(F)(F)F)c1	> 50 µM
CC1=C(C#N)[C@@H](c2ccc(C#N)cc2)N(CC(N)=O)C(=O)N1c1cccc(C(F)(F)F)c1	> 50 µM

###

Observed IC50 values for Plasminogen (Homo sapiens, UniProt P00747) are listed in what follows.
readout.name: IC50

molecule.smiles	measurement.target	experimental.value
CC(=O)C1=C(C)N(c2cccc(C(F)(F)F)c2)C(=O)N[C@@H]1c1ccc(C#N)nc1	Plasminogen (Homo sapiens, UniProt P00747)	> 30 µM
CC1=C(C#N)[C@@H](c2ccc(C#N)cc2S(C)(=O)=O)N(C)C(=O)N1c1cccc(C(F)(F)F)c1	Plasminogen (Homo sapiens, UniProt P00747)	> 30 µM

###

Quick record: IC50, Kallikrein-7 (Homo sapiens, UniProt P49862).
readout.name: IC50

compound	experimental.value
CC(=O)C1=C(C)N(c2cccc(C(F)(F)F)c2)C(=O)N[C@@H]1c1ccc(C#N)nc1 [BAY-678]	> 30 µM
CC1=C(C#N)[C@@H](c2ccc(C#N)cc2S(C)(=O)=O)N(C)C(=O)N1c1cccc(C(F)(F)F)c1	> 30 µM

###

Target: Chymase (Homo sapiens)
Sequence (P23946 whole entry): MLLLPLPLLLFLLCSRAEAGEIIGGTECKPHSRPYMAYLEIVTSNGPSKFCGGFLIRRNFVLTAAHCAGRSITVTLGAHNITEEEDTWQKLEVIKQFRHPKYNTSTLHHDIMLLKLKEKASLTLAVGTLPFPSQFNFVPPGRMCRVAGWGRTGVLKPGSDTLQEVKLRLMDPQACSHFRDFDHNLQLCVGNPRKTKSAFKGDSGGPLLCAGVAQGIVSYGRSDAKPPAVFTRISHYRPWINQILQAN
Catalogue of IC50 readings, one per entry.

molecule.smiles	IC50
CC(=O)C1=C(C)N(c2cccc(C(F)(F)F)c2)C(=O)N[C@@H]1c1ccc(C#N)nc1	> 30 µM
CC1=C(C#N)[C@@H](c2ccc(C#N)cc2S(C)(=O)=O)N(C)C(=O)N1c1cccc(C(F)(F)F)c1	> 30 µM
